Assay: Primary qHTS to identify inhibitors of SARS-CoV-2 cell entry (AID 1645846); further: nearly all actives have a fitted effect of over 45% in size
Conditions: SARS-CoV-2 pseudovirus cell entry assay, luminescence; series mostly up to 57.1 µM
Description: Assay Provider: Wei Zheng, Ph.D. National Center for Advancing Translational Sciences, National Institute of Health, Rockville, MD. SARS-CoV-2 spike protein, within the viral envelope, mediates viral attachment and infection of host cells. The SARS-CoV-2 spike protein specifically binds to the host receptor ACE2 (Angiotensin-converting enzyme 2). […] 11. […] Read luminescence signal (Viewlux plate reader, PerkinElmer). […]
Results filed as inconclusive are left out. Calls of active or inactive are those of the source. The call rests on the fitted dose curve.
measured attribute: outcome

# compound, measured attribute, recorded result
measured = [
    ("CCC1(c2ccc(N)cc2)CCC(=O)NC1=O (stereo not drawn)", "outcome", "inactive"),
    ("Nc1ccc(S(=O)(=O)NC(=O)c2ccccc2)cc1", "outcome", "inactive"),
    ("O=C(OCc1ccccc1)c1ccccc1", "outcome", "inactive"),
    ("C=CCN1CCc2nc(N)sc2CC1", "outcome", "inactive"),
    ("O=c1cc(O)c(Cl)c[nH]1", "outcome", "inactive"),
    ("CCC1=C(C)CN(C(=O)NCCc2ccc(S(=O)(=O)NC(=O)NC3CCC(C)CC3)cc2)C1=O (stereo not drawn)", "outcome", "inactive"),
    ("CC1(C)O[C@@H]2C[C@H]3[C@@H]4C[C@H](F)C5=CC(=O)C=C[C@]5(C)[C@@]4(F)[C@@H](O)C[C@]3(C)[C@]2(C(=O)CO)O1", "outcome", "inactive"),
    ("O=C(O)Cc1cccc2ccccc12", "outcome", "inactive"),
    ("CCc1cc(C(N)=S)ccn1", "outcome", "inactive"),
    ("O=C(CCOCCOCCOCCOCCC(=O)Nc1c(I)cc(I)c(C(=O)O)c1I)Nc1c(I)cc(I)c(C(=O)O)c1I", "outcome", "inactive"),
    ("OC[C@@H](O)[C@@H](O[C@@H]1O[C@H](CO)[C@H](O)[C@H](O)[C@H]1O)[C@H](O)[C@@H](O)CO", "outcome", "inactive"),
    ("CO[C@@]1(NC(=O)Cc2cccs2)C(=O)N2C(C(=O)O)=C(COC(N)=O)CS[C@@H]21", "outcome", "inactive"),
    ("CN1C(=O)OC(C)(C)C1=O", "outcome", "inactive"),
    ("CC(C)c1ccc2oc3nc(N)c(C(=O)O)cc3c(=O)c2c1", "outcome", "inactive"),
    ("CC(CC(C#N)(c1ccccc1)C(C)C)N(C)C (stereo not drawn)", "outcome", "inactive"),
    ("Cc1c(Nc2ncccc2C(=O)O)cccc1C(F)(F)F", "outcome", "inactive"),
    ("O=C(O)c1cc(=O)c2c(OCC(O)COc3cccc4oc(C(=O)O)cc(=O)c34)cccc2o1", "outcome", "inactive"),
    ("CC(=O)Nc1ccc(S(=O)(=O)Nc2cc(C)on2)cc1", "outcome", "inactive"),
    ("CN1[C@@H]2CC(OC(=O)[C@H](CO)c3ccccc3)C[C@H]1[C@@H]1O[C@@H]12 (stereo partly drawn)", "outcome", "inactive"),
    ("CC(C)COC(=O)c1ccc(N)cc1", "outcome", "inactive"),
    ("O=C(O)c1ccccc1Nc1cccc(C(F)(F)F)c1", "outcome", "inactive"),
    ("CC(=O)N(CC(O)CO)c1c(I)c(C(=O)NCC(O)CO)c(I)c(C(=O)NCC(O)CO)c1I (stereo not drawn)", "outcome", "inactive"),
    ("CN1C(C(=O)Nc2ccccn2)=C(O)c2ccccc2S1(=O)=O", "outcome", "inactive"),
]
